// data source = ChEMBL document CHEMBL3045472

Test system: Mus musculus
testDescription: Anticonvulsant activity in Mus musculus albino (mouse) assessed as decrease in pentylenetetrazole-induced total seizure time at 300 mg/kg, ip administered 30 min followed by pentylenetetrazole induction measured for 30 min (reference value: 9.9 +/- 1.3 secs)
Assay type: functional
statedConditions: route intraperitoneal
Labelling field: enter T if recorded Time is less than 5 s. Enter F if it equals or exceeds that cut-off.

Would you please look over these solved cases?
INSERT INTO results (structureassmiles, assignedlabel) VALUES
  ('O=C(CNc1ccc(Br)cc1)N/N=C/c1ccccc1[N+](=O)[O-]', 'T'),
  ('C/C(=N\NC(=O)CNc1ccc(Br)cc1)c1ccccc1', 'T'),
  ('CCOc1ccc(NCC(=O)N/N=C/c2ccccc2O)cc1', 'F'),
  ('CCOc1ccc(NCC(=O)N/N=C/c2ccc([N+](=O)[O-])cc2)cc1', 'F'),
  ('O=C(CNc1ccc(Br)cc1)N/N=C/c1ccc([N+](=O)[O-])cc1', 'T');

Pending molecule:
Decide: Time of CCOc1ccc(NCC(=O)N/N=C(/C)c2ccccc2)cc1 strictly below 5 s?
F
